# Tested on: Fibroblast
# METHOD SUMMARY: Incucyte cell viability with human fibroblast; also: unitless GR value; below 1 slowed growth and below 0 cell loss
# Type: toxicity, cell-based
# CONDITION SET: 12 h, 10 µM, compound concentration 10 uM, replicate number 2
READOUT LABEL: Growth Rate
# respond with the number and nothing more

Study these solved cases before continuing.
COMPOUND	Growth Rate
COc1cc2ncnc(N[C@H](C)c3ccccc3)c2cc1OC1CCN(S(C)(=O)=O)CC1.Cl	0.61
COc1cc(CN(CCN)C(=O)N[C@@H](C)c2ccccc2)ccc1OCc1ccccc1.Cl	0.41

Reported Growth Rate for `CC(C)(C)c1cc(NC(=O)c2csc(Nc3ccccn3)n2)no1` was 0.03

According to the records, this compound `CN1CCN(c2nc(N)c3ccccc3n2)CC1` displays Growth Rate of 0.67

# Growth Rate of `COc1ccc(-c2coc3cc(O)cc(O)c3c2=O)cc1` = 0.69
